Source of measurements: the supplement of paper PMC9694430

Test system: LOC_OS01G52050-cb004
Sequence (as listed by the source): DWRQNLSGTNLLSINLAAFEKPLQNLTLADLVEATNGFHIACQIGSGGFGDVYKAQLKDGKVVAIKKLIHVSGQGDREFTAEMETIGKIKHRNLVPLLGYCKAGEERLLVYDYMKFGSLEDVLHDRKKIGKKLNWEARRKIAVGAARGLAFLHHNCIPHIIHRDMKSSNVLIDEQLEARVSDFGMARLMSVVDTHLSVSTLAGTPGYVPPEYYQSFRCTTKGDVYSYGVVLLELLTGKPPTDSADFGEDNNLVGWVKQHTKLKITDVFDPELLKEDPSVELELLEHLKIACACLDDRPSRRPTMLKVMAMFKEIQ
Assay: thermal shift delta Tm vs DMSO control; higher = stronger stabilization (binding);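 also: purified Escherichia coli-expressed rice kinase domain construct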
Conditions: 12.5 µM; protein concentration 2 µM
Where a name gives a salt, the structure may show the parent alone.
Entry class follows thermal shift delta Tm: Low = under 0.7 °C, Mid = from 0.7 °C up to 2 °C, High = 2 °C and over

| compound | assigned.label |
| --- | --- |
| CC[C@@](C)(Nc1ccnc(-c2c[nH]c3ncccc23)n1)C(=O)NCC(F)(F)F | Low |
| CO[C@@H](C(=O)N1Cc2[nH]nc(NC(=O)c3ccc(N4CCN(C)CC4)cc3)c2C1)c1ccccc1 | Low |
| Nc1ncccc1-c1nc2ccc(-c3ccccc3)nc2n1-c1ccc(C2(N)CCC2)cc1 [Miransertib (ARQ 092) HCl] | Mid |
| CO[C@H]1C[C@@H]2CC[C@@H](C)[C@@](O)(O2)C(=O)C(=O)N2CCCC[C@H]2C(=O)O[C@H]([C@H](C)C[C@@H]2CC[C@@H](OC(=O)C(C)(CO)CO)[C@H](OC)C2)CC(=O)[C@H](C)/C=C(\C)[C@@H](O)[C@@H](OC)C(=O)[C@H](C)C[C@H](C)/C=C/C=C/C=C/1C | Mid |
| Cc1cc(F)c(Nc2ncnc3cc(OCc4ccccc4)ccc23)cc1O | Mid |
| CC(C)(C)c1nc(-c2ccc(NC(=O)Nc3cccc(C(F)(F)F)c3)c3ccccc23)c2c(N)nccn12 | High |
| Oc1cc(CNC(=S)/C=C/c2cc(O)c(O)c(Br)c2)cc(O)c1O | Mid |
| CN1CCC(CNc2ccc3ncc(-c4cccc(OC(F)(F)F)c4)n3n2)CC1 [SGI-1776 free base] | High |
| CCNc1nc(Nc2cc(F)c(C(=O)N3CCOCC3)cc2OC)ncc1C(F)(F)F | Low |

* * *

Test system: LOC_OS03G50450-cb001
Experiment: thermal shift delta Tm vs DMSO control; higher = stronger stabilization (binding)
Settings: 12.5 µM; protein concentration 2 µM
Counter-ions that a name gives are not always drawn.
Quick rule for you: thermal shift delta Tm at 0.2 °C or higher means 1.0, lower means 0.0.

| compound | assigned.label |
| --- | --- |
| Cc1cc(NC(=O)c2cccc(NC(=O)/C=C/CN(C)C)c2)ccc1Nc1nccc(-c2cccnc2)n1 | 1.0 |
| CCc1nc(-c2cccc(C)c2)c(-c2ccnc(NC(=O)c3ccccc3)c2)s1 | 0.0 |
| CCCCCCCCc1ccc(CCC(N)(CO)CO)cc1 [Fingolimod (FTY720) HCl] | 0.0 |
| COc1cc(N2CCN(C)CC2)ccc1Nc1nccc(-c2cn(C)c3cnccc23)n1 | 0.0 |
| Oc1ccc(Nc2nc(-c3ccc(Cl)cc3)cs2)cc1 | 1.0 |
| COc1ccc(S(=O)(=O)N(C(C)=O)c2ccccc2/C=C/c2cc[n+]([O-])cc2)cc1 | 0.0 |
| O=C(Nc1cnn2ccc(N3CCC[C@@H]3c3cc(F)ccc3F)nc12)N1CC[C@H](O)C1 [Larotrectinib (LOXO-101) sulfate] | 0.0 |

* * *

System: LOC_OS01G60700-cb002
Test: thermal shift delta Tm vs DMSO control; higher = stronger stabilization (binding)
Settings: 12.5 µM; protein concentration 2 µM
Let's look at some compounds and their measured thermal shift delta Tm.

| chem.smiles | unit.abbrev | thermal shift delta Tm |
| --- | --- | --- |
| CC1(COc2ccc3c(c2)ncn3-c2ccc3cccc(N4CCC(N)CC4)c3n2)COC1 | °C | 0.41 |
| FC(F)(F)c1ccc(/C=C/c2nc(COc3ccc(CCCCn4ccnn4)cc3)co2)cc1 | °C | 0.41 |
| Cc1c(Cn2c(C)nc3c(C(=O)O)cc(N4CCOCC4)cc32)cccc1C(F)(F)F | °C | 0.4 |

* * *

Test system: LOC_OS07G07230-cb001
Assay: thermal shift delta Tm vs DMSO control; higher = stronger stabilization (binding)
Details: 12.5 µM; protein concentration 2 µM
Where a name gives a salt, the structure may show the parent alone.

| molecule | unit.abbrev | thermal shift delta Tm |
| --- | --- | --- |
| FC(F)(F)c1ccc(Nc2nc3ccc(Oc4ccnc(-c5ncc(C(F)(F)F)[nH]5)c4)cc3[nH]2)cc1 [Raf265 derivative] | °C | 0.27 |
| CCc1nc(-c2cccc(C)c2)c(-c2ccnc(NC(=O)c3ccccc3)c2)s1 | °C | -0.21 |
| COc1nccnc1NS(=O)(=O)c1ccc(NC(=O)/C=C/c2ccc([N+](=O)[O-])s2)cc1 [Necrosulfonamide] | °C | 0.63 |
| Cc1cnc(Nc2ccc(N3CCN(C)CC3)cc2)nc1Nc1cccc(S(=O)(=O)NC(C)(C)C)c1 | °C | -0.42 |
| CN1c2ccccc2C(=O)Nc2cnc(Nc3ccc(N4CCC(O)CC4)cc3)nc21 | °C | 1.4 |
| COc1cc(N2CCN(C)CC2)ccc1Nc1ncc2c(n1)N(C)c1ccccc1C(=O)N2 | °C | 0.21 |
| NC(=O)c1ccc2nc(-c3ccc(Oc4ccc(Cl)cc4)cc3)[nH]c2c1 [Chk2 Inhibitor II (BML-277)] | °C | -0.75 |
| N=C(N)NC(=N)NCCc1ccccc1 [Phenformin HCl] | °C | -0.03 |
| C[C@@H](Nc1cc(F)cc(F)c1)c1cc(C(=O)N(C)C)cc2c(=O)cc(N3CCOCC3)oc12 | °C | 0.35 |
| O=C(/C=C/c1ccc2ccccc2n1)c1ccncc1 | °C | 0.31 |
| CNC(=O)c1ccccc1Sc1ccc2c(/C=C/c3ccccn3)n[nH]c2c1 [Axitinib] | °C | 0.76 |
| COc1cc2ncnc(Sc3nnc(C)s3)c2cc1OC | °C | 1.4 |
| CN1CC[C@H](c2c(O)cc(O)c3c(=O)cc(-c4ccccc4Cl)oc23)[C@H](O)C1 [Flavopiridol HCl] | °C | 0.03 |
| O=C1NC(=O)C(=Cc2ccc(-c3ccc(F)cc3)o2)S1 (stereo in doubt) | °C | 0.04 |
| Cn1cc(-c2ccc3nnc(C(F)(F)c4ccc5ncccc5c4)n3n2)cn1 | °C | -0.03 |
| O=c1cc(-c2cccc3c2Sc2ccccc2S3)oc(N2CCOCC2)c1 | °C | -0.3 |

* * *

Test system: LOC_OS01G63280-cb003
Test: thermal shift delta Tm vs DMSO control; higher = stronger stabilization (binding)
Settings: 12.5 µM; protein concentration 2 µM
Let's look at some molecules and their measured thermal shift delta Tm.

| molecule | unit.abbrev | thermal shift delta Tm |
| --- | --- | --- |
| CN(C)CCCn1cc(C2=C(c3c[nH]c4ccccc34)C(=O)NC2=O)c2ccccc21 | °C | 0.38 |
| O=C1NC(=O)C(c2ccccc2[N+](=O)[O-])=C1Nc1ccc(O)c(Cl)c1 | °C | 0.02 |
| CC(C)(C#N)c1ccc(N2C(=O)OCc3cnc4ccc(-c5cnc6ccccc6c5)cc4c32)cc1 | °C | 0.63 |
| O=C(O)[C@]1(Cc2cccc(Nc3nccs3)n2)CC[C@@H](Oc2cccc(Cl)c2F)CC1 | °C | 0.43 |
| CCOC(=O)c1cnc2ccc(-c3cncc(NS(=O)(=O)c4ccccc4)c3)cn12 | °C | 0.47 |
| O=C1Nc2ccc(CN3C(=O)CSC3=O)cc2/C1=C/c1cc(CN2CCOCC2)c[nH]1 | °C | 0.05 |
| O=c1cc(-c2ccccc2)oc2c(O)c(O)ccc12 [7,8-Dihydroxyflavone] | °C | 1.34 |
| C=CC(=O)N1CC[C@@H](Oc2nc(Nc3ccc(N4CCC(N5CCN(C)CC5)CC4)cc3)c(C(N)=O)nc2CC)C1 [Naquotinib(ASP8273)] | °C | 0.22 |
| CS(=O)(=O)c1ccc(-c2cnc(N)c(C(=O)Nc3ccccc3)n2)cc1 | °C | 0.26 |
| FC(F)(F)c1ccc(/C=C/c2nc(COc3ccc(CCCCn4ccnn4)cc3)co2)cc1 [Mubritinib (TAK 165)] | °C | 0.22 |
| Cc1nc(Nc2n[nH]c3c2CN(C(=O)N[C@H](CN(C)C)c2ccccc2)C3(C)C)c2sccc2n1 | °C | 0.55 |
| CO[C@H]1C[C@@H]2CC[C@@H](C)[C@@](O)(O2)C(=O)C(=O)N2CCCC[C@H]2C(=O)O[C@H]([C@H](C)C[C@@H]2CC[C@@H](O)[C@H](OC)C2)CC(=O)[C@H](C)/C=C(\C)[C@@H](O)[C@@H](OC)C(=O)[C@H](C)C[C@H](C)/C=C/C=C/C=C/1C [Rapamycin (Sirolimus)] | °C | 0.14 |
| CNS(=O)(=O)C[C@H]1CC[C@H](N(C)c2[nH]cnc3nccc2-3)CC1 [Oclacitinib] | °C | 2.6 |
| CN(C)C/C=C/C(=O)Nc1cc2c(Nc3ccc(F)c(Cl)c3)ncnc2cc1O[C@H]1CCOC1 [Afatinib (BIBW2992)] | °C | -0.22 |
| Cc1cccc(Nc2nc(NC3CCCCC3N)ncc2C(N)=O)c1 (stereo not drawn) | °C | 0.64 |
| C=CC(=O)Nc1cccc(Oc2nc(Nc3ccc(N4CCN(C)CC4)cc3OC)ncc2Cl)c1 | °C | 0.05 |
| Cn1c(Nc2ccc(C(F)(F)F)cc2)nc2cc(Oc3ccnc(-c4ncc(C(F)(F)F)[nH]4)c3)ccc21 | °C | 24.5 |
| OC1CCC(Nc2ncc3nc(Nc4c(F)cc(F)cc4F)n([C@H]4CCOC4)c3n2)CC1 (stereo partly drawn) [Tanzisertib(CC-930)] | °C | 0.29 |
| Cn1sc(=O)n(Cc2ccccc2)c1=O | °C | 1.02 |
| O=C(NCCCNc1nc(Nc2cccc(NC(=O)N3CCCC3)c2)ncc1I)c1cccs1 | °C | 0.47 |
| C=CC(=O)Nc1cccc(Nc2nc(Nc3ccc(N4CCN(C(C)=O)CC4)cc3OC)ncc2C(F)(F)F)c1 [Rociletinib (CO-1686, AVL-301)] | °C | -0.27 |
| C[C@H](NC(=O)/C(C#N)=C/c1cccc(Br)n1)c1ccccc1 | °C | -4.67 |
| C[C@@H](N)c1ccc(C(=O)Nc2ccnc3[nH]ccc23)cc1 | °C | 0.61 |
